# credit: patent US11299501B2

Answer each item with its documented pIC50.
Biological target: human TLR7 (Homo sapiens, UniProt Q9NYK1)
Sequence (Q9NYK1 27-1049): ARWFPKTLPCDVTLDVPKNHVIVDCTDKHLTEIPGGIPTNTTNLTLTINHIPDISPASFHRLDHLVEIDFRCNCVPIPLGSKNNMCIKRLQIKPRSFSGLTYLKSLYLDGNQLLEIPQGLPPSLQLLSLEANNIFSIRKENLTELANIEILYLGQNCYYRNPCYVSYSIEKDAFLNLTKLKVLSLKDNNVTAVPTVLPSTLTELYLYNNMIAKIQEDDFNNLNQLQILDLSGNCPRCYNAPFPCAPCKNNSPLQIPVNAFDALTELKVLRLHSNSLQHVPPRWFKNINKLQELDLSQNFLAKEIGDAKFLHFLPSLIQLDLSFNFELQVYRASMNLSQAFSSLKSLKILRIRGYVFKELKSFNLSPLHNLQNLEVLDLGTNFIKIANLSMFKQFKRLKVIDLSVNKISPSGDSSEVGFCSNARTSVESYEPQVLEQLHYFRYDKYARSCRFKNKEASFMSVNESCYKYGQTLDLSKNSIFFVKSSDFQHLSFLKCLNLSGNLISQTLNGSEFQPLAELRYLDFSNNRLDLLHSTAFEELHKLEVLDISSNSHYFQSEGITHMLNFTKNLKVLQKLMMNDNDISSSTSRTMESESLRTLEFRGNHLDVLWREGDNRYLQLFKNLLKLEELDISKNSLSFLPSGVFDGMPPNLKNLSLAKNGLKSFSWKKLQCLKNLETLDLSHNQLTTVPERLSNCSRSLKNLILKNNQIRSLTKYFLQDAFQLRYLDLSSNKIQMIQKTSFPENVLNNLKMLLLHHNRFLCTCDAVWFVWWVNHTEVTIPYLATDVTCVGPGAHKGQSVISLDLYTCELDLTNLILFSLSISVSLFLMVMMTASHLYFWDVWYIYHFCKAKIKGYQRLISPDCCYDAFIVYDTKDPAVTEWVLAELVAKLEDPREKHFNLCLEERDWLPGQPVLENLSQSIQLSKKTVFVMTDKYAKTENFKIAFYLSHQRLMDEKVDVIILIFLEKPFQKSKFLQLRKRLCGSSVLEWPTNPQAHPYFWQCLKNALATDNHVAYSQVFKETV
Test: TLR7 inhibition reporter assay (HEK-Blue SEAP)
Details: cells overexpressing human TLR7, SEAP reporter, stimulated with gardiquimod 7.5 μM, 22 hour incubation
pIC50: −log10 of the molar value.

Look up pIC50 for this compound: "COc1ccc(-c2[nH]c3cnc(C4CCN(C5CCN(CC(C)C)CC5)CC4)nc3c2C)cc1OC"
6.00 to 7.00

Now give it for "Cc1cc(-c2[nH]c3cnc(C4CCN(C5COC5)CC4)nc3c2C(C)C)cn2ncnc12" too.
> 7.00

Now give it for "CCc1c(-c2ccc(OC)c(OC)c2)[nH]c2cnc(-c3nnc(N)o3)nc12" too.
< 4.30

Now give it for "Cc1c(-c2[nH]c3cnc(C4CCN(CC(C)(C)O)CC4)nc3c2C(C)C)cn2ncnc2c1C" too.
> 7.00

Now give it for "CCc1c(-c2ccc(OC)c(OC)c2)[nH]c2cnc(C(=O)NC3CCN(C(C)C)CC3)nc12" too.
4.30 to 6.00

Now give it for "COc1cc(-c2[nH]c3cnc(C4CCN(CC(C)(C)O)CC4)nc3c2C(C)C)cn2ncnc12" too.
> 7.00

Now give it for "COc1cc(-c2[nH]c3cnc(C4CCN(C5COC5)CC4)nc3c2C(C)C)cn2ncnc12" too.
> 7.00

Now give it for "COc1cc(-c2[nH]c3cnc(C4CCN(CC#N)CC4)nc3c2C(C)C)cn2ncnc12" too.
> 7.00

###

Biological target: human TLR7 (Homo sapiens)
Assay: TLR7 inhibition reporter assay (HEK-Blue SEAP)
Conditions: cells overexpressing human TLR7, SEAP reporter, stimulated with gardiquimod 7.5 μM, 22 hour incubation
pIC50: −log10 of the molar value.
Measure Name: pIC50

Field: pIC50 (human TLR7 (Homo sapiens)). Entry: "Cc1cc(-c2[nH]c3cnc(C4CCN(CC(=O)N(C)C)CC4)nc3c2C(C)C)cn(C)c1=O"
> 7.00

Now give it for "CCc1c(-c2ccc(OC)c(OC)c2)[nH]c2cnc(-c3nnc(C[C@@H]4CCCN4)o3)nc12" too.
4.30 to 6.00

Now give it for "CNC(=O)CN1CCC(c2ncc3[nH]c(-c4cc(C)c5ncnn5c4)c(C(C)C)c3n2)CC1" too.
> 7.00

Now give it for "CCc1c(-c2ccc(OC)c(OC)c2)[nH]c2nnc(C3CCN(C4CCN(C(C)C)CC4)CC3)cc12" too.
6.00 to 7.00

Now give it for "CNC(=O)CN1CCC(c2ncc3[nH]c(-c4cn5ncnc5c(C)c4C)c(C(C)C)c3n2)CC1" too.
> 7.00

Now give it for "COc1ccc(-c2[nH]c3cnc(C4CCNCC4)nc3c2C(C)C)cc1OC" too.
> 7.00

Now give it for CCc1c(-c2ccc(OC)c(OC)c2)[nH]c2cnc(C(=O)N3CC4CNCC4C3)nc12 (stereo not shown) too.
4.30 to 6.00

Now give it for "COc1cc(-c2[nH]c3cnc(C4CCN(CC(=O)N(C)C)CC4)nc3c2C(C)C)cn2ncnc12" too.
> 7.00

Now give it for "CCc1c(-c2ccc(OC)c(OC)c2)[nH]c2ncc(C3CCNCC3)nc12" too.
6.00 to 7.00

Now give it for "CCc1c(-c2ccc(OC)c(OC)c2)[nH]c2cnc(-c3nnc([C@@H]4CCCNC4)o3)nc12" too.
4.30 to 6.00

###

Answer each item with its documented pIC50.
Biological target: human TLR9 (Homo sapiens, UniProt Q9NR96)
Sequence (Q9NR96 26-1032): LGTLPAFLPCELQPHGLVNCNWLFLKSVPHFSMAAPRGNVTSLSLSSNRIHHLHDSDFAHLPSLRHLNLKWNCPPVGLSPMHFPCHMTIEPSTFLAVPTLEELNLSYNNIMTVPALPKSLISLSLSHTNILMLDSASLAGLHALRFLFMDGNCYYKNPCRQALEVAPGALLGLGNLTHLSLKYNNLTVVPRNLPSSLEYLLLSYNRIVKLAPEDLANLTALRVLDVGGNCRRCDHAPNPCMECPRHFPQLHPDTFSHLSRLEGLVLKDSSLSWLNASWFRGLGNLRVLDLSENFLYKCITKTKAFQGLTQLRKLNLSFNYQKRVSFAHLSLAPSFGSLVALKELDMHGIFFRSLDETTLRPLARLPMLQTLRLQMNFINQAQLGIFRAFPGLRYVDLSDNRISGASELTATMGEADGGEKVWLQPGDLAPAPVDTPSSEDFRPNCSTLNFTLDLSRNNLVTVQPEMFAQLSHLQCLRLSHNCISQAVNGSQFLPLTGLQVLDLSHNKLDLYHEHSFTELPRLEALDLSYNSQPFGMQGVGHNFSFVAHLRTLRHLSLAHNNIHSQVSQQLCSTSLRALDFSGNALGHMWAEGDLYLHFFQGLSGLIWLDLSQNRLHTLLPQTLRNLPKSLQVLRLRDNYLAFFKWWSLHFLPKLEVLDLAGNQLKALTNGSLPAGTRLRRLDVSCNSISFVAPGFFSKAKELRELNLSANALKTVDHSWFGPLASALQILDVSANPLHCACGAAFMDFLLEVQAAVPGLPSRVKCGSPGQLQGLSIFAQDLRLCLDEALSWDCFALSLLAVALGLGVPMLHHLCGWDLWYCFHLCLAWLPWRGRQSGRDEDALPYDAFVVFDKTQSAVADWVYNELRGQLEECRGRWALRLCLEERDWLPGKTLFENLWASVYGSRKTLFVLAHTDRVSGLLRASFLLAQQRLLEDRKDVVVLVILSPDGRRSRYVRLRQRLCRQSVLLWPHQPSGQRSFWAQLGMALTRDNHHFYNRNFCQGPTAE
Assay: TLR9 inhibition reporter assay (HEK-Blue SEAP)
Details: cells overexpressing human TLR9, SEAP reporter, stimulated with ODN2006 5 nM, 22 hour incubation
pIC50: −log10 of the molar value.

Look up pIC50 for this molecule: "CCc1c(-c2ccc(OC)c(OC)c2)[nH]c2nnc(C3CCNCC3)cc12"
6.00 to 7.00

Now give it for "Cc1cc(-c2[nH]c3cnc(C4CCN(C5COC5)CC4)nc3c2C(C)C)cn(C)c1=O" too.
4.30 to 6.00

Now give it for "CCc1c(-c2ccc(OC)c(OC)c2)[nH]c2cnc(-c3nnc(C(C)(C)N)o3)nc12" too.
< 4.30

Now give it for "CCc1c(-c2ccc(OC)c(OC)c2)[nH]c2cnc(-c3nnc(CCNC)o3)nc12" too.
4.30 to 6.00

Now give it for "COc1cc(-c2[nH]c3cnc(C4CCN(CC(=O)N(C)C)CC4)nc3c2C(C)C)cn2ncnc12" too.
4.30 to 6.00

Now give it for "COc1ccc(-c2[nH]c3cnc(C4CCN(C5CCN(C(C)C)CC5)CC4)nc3c2C(C)C)cc1OC" too.
6.00 to 7.00

Now give it for "CNC(=O)CN1CCC(c2ncc3[nH]c(-c4cc(C)c5ncnn5c4)c(C(C)C)c3n2)CC1" too.
< 4.30

Now give it for "CCc1c(-c2ccc(OC)c(OC)c2)[nH]c2cnc(-c3nnc([C@@H]4CCCNC4)o3)nc12" too.
4.30 to 6.00

Now give it for "Cc1cc(-c2[nH]c3cnc(C4CCN(CC(=O)N(C)C)CC4)nc3c2C(C)C)cn(C)c1=O" too.
4.30 to 6.00

Now give it for "Cc1cc(-c2[nH]c3cnc(C4CCN(C(=O)CN(C)C)CC4)nc3c2C(C)C)cn(C)c1=O" too.
4.30 to 6.00

Now give it for "CCc1c(-c2ccc(OC)c(OC)c2)[nH]c2cnc(C3CCN(Cc4c[nH]cn4)CC3)nc12" too.
4.30 to 6.00

Now give it for "CCc1c(-c2ccc(OC)c(OC)c2)[nH]c2cnc(-c3nnc(CNC)o3)nc12" too.
4.30 to 6.00

Now give it for "Cc1c(-c2[nH]c3cnc(C4CCN(CC(=O)N(C)C)CC4)nc3c2C(C)C)cn2ncnc2c1C" too.
4.30 to 6.00

Now give it for Cc1cc(-c2[nH]c3cnc(C4CCN(C5CCOC5)CC4)nc3c2C(C)C)cn(C)c1=O (stereo not shown) too.
4.30 to 6.00

Now give it for CCc1c(-c2ccc(OC)c(OC)c2)[nH]c2cnc(C(=O)N3CC4CNCC4C3)nc12 (stereo not shown) too.
4.30 to 6.00

Now give it for "CCc1c(-c2ccnc(C)c2)[nH]c2cnc(C3CCN(C4CCN(C(C)C)CC4)CC3)nc12" too.
6.00 to 7.00

###

Target: human TLR8 (Homo sapiens, UniProt Q9NR97)
Sequence (Q9NR97 27-1041): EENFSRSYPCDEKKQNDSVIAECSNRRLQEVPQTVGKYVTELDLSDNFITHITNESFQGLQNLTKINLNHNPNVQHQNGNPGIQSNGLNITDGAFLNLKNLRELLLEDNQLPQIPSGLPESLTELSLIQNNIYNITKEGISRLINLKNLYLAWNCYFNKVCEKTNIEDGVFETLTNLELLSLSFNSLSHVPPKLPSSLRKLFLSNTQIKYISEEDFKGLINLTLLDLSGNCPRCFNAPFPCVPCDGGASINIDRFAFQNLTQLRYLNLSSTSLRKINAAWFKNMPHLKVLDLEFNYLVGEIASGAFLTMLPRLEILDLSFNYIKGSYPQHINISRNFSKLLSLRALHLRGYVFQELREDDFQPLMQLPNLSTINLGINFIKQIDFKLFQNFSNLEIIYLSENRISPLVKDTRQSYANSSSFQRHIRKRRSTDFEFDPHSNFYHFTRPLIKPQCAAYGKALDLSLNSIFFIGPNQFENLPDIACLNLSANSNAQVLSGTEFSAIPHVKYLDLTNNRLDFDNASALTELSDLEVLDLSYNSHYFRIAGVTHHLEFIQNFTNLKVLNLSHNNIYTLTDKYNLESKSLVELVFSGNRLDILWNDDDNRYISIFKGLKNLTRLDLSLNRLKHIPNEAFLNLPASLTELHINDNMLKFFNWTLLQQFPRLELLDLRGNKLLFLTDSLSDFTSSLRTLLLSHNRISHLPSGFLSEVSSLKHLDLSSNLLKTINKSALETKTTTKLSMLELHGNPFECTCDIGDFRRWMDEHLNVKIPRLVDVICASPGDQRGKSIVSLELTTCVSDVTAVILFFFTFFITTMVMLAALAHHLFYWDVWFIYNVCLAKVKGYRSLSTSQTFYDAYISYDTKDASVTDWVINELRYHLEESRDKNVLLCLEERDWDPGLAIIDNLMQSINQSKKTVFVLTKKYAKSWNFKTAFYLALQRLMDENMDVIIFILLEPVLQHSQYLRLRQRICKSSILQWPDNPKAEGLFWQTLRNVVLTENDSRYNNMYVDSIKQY
Test: TLR8 inhibition reporter assay (HEK-Blue SEAP)
Settings: cells overexpressing human TLR8, SEAP reporter, stimulated with R848 15.9 μM, 22 hour incubation
pIC50: −log10 of the molar value.
Measure Name: pIC50

Look up pIC50 for this compound: CCc1c(-c2ccc(OC)c(OC)c2)[nH]c2cnc(-c3nnc([C@@H]4CCCNC4)o3)nc12 [Example 43]
6.00 to 7.00

Now give it for Cc1c(-c2[nH]c3cnc(C4CCN(C(=O)CN(C)C)CC4)nc3c2C(C)C)cn2ncnc2c1C [Example 28] too.
> 7.00

Now give it for CNC(=O)CN1CCC(c2ncc3[nH]c(-c4cc(C)c5ncnn5c4)c(C(C)C)c3n2)CC1 [Example 30] too.
> 7.00

Now give it for COc1cc(-c2[nH]c3cnc(C4CCN(CC(C)(C)O)CC4)nc3c2C(C)C)cn2ncnc12 [Example 15] too.
> 7.00

Now give it for CCc1c(-c2ccc(OC)c(OC)c2)[nH]c2cnc(-c3nnc(C[C@@H]4CCCCN4)o3)nc12 [Example 46] too.
6.00 to 7.00

Now give it for CCc1c(-c2ccc(OC)c(OC)c2)[nH]c2cnc(-c3nnc(N)o3)nc12 [Example 53] too.
4.30 to 6.00

Now give it for CCc1c(-c2ccc(OC)c(OC)c2)[nH]c2cnc(-c3nnc(CNC)o3)nc12 [Example 42] too.
6.00 to 7.00

Now give it for CCc1c(-c2ccc(OC)c(OC)c2)[nH]c2cnc(-c3nnc(CCN(C)C)o3)nc12 [Example 48] too.
6.00 to 7.00

Now give it for Cc1cc(-c2[nH]c3cnc(C4CCN(C(=O)CN(C)C)CC4)nc3c2C(C)C)cn(C)c1=O [Example 33] too.
6.00 to 7.00

Now give it for COc1cc(-c2[nH]c3cnc(C4CCN(CC(=O)N(C)C)CC4)nc3c2C(C)C)cn2ncnc12 [Example 31] too.
> 7.00

Now give it for Cc1cc(-c2[nH]c3cnc(C4CCN(CC(=O)N(C)C)CC4)nc3c2C(C)C)cn2ncnc12 [Example 29] too.
> 7.00

Now give it for Cc1c(-c2[nH]c3cnc(C4CCN(CC(=O)N(C)C)CC4)nc3c2C(C)C)cn2ncnc2c1C [Example 10] too.
> 7.00

Now give it for CCc1c(-c2ccc(OC)c(OC)c2)[nH]c2cnc(C(=O)N3CC4CNCC4C3)nc12 (centres unmarked) [Example 55] too.
4.30 to 6.00

Now give it for CCc1c(-c2ccc(OC)c(OC)c2)[nH]c2cnc(C3CCN(C4CCN(C(C)C)CC4)CC3)nc12 [Example 26] too.
> 7.00
